Assay Explanation: chemical genetic growth profiling, strain panel (AID 1159580);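 note: tested at 20 µM; growth read once vehicle control cultures reached saturation at 30 °C; 1 = growth at the plate median or of vehicle wells; lower values mean less growth of the strain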
Protocol Conditions: S. cerevisiae deletion strains, growth OD, locus YNR049C, strain mso1, hits give low values
Screen size: about 5,500 compounds; about 2,000 (36%) were called active. About 18% were inconclusive and are not listed. The list shows a part of the results.
Readout: normalized growth
One number for each entry.

Examples from the recorded data:
Cc1occc(=O)c1O; 0.958
C=C[C@@H](C1=CC(=O)C(OC)=C(OC)C1=O)c1ccccc1; 0.986
CNC[C@@H](O)c1ccc(O)c(O)c1; 1
NCC(O)c1ccc(O)cc1 (configuration not stated); 1
CC(C)(C)NC[C@@H](O)COc1nsnc1N1CCOCC1; 1.01
COc1c2c(cc3c1OCO3)CCN(C)C2; 1.01

Next compound, please.
Per the record, C=CC(C1=CC(=O)C=CC1=O)c1ccccc1 (configuration not stated) has normalized growth of 1.02
